From: patent US20100256177A1

# Test system: ECV-304 (endothelial) cell line
# test: three day MTT cytotoxicity assay, ECV-304 endothelial
# Assay type: cell-based
# condition.parameters: ECV-304 endothelial cells, 72 hours
quantity.kind: IC50 (μg/mL) of Flavoperereine derivatives in human tumor cell lines, ECV-304 Endothelial (µg/mL)

compound	unit.name	test.value
Fc1ccc(COc2ccc3c4[nH]c5ccccc5c4cc[n+]3c2)cc1.[O-][Cl+3]([O-])([O-])[O-]	µg/mL	24
Brc1ccc(COc2ccc3[n+](c2)CCc2c-3[nH]c3ccccc23)cc1.[Br-]	µg/mL	12
BrCCCOc1ccc2c3[nH]c4ccccc4c3cc[n+]2c1.[O-][Cl+3]([O-])([O-])[O-]	µg/mL	6
CCOc1ccc2[n+](c1)CCc1c-2[nH]c2ccccc12	µg/mL	64
[Br-].c1ccc(COc2ccc3c4[nH]c5ccccc5c4cc[n+]3c2)cc1	µg/mL	13.5
CCOc1ccc2c3[nH]c4ccccc4c3cc[n+]2c1	µg/mL	4
c1ccc(COc2ccc3c4[nH]c5ccccc5c4cc[n+]3c2)cc1 [Compound 28, 3-benzyloxyindolo[2,3-a]quinolizinium]	µg/mL	4
Fc1ccc(COc2ccc3[n+](c2)CCc2c-3[nH]c3ccccc23)cc1.[O-][Cl+3]([O-])([O-])[O-]	µg/mL	24
